Data provenance: patent US20160297833A1

IC50 reference
Target: human full-length MKNK1 (Homo sapiens, UniProt Q9BUB5, T385D)
Construct: GST (N); purchased Carna Biosciences 02-145; host or cells: insect cells (baculovirus expression system)
Sequence (Q9BUB5 1-424 isoform Q9BUB5-2 T344D): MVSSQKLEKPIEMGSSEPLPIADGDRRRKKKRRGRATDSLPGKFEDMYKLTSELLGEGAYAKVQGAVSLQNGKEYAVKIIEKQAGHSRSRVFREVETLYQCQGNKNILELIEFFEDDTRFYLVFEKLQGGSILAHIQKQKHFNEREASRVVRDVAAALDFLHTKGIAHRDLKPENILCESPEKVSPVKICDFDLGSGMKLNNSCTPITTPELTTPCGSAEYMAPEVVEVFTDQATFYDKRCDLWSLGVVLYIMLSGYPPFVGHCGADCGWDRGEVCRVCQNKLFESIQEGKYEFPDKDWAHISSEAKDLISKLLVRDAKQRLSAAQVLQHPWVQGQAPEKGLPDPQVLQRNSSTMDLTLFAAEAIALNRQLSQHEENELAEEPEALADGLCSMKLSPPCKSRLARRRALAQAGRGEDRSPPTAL
Assay: MKNK1 kinase high ATP assay (TR-FRET)
Type: biochemical
Conditions: Table 1; MKNK1 kinase high ATP assay, 2 mM ATP; read-out: MKNK1 IC50

- compound: "CN(C)C1CCN(c2cc3[nH]ncc3cc2Nc2ncnc3sc4c(c23)CC[C@H](C(=O)N2C[C@@H]3C[C@H]2CO3)C4)CC1"
  IC50 / nM: 17.5
- compound: "COCCN(C)C(=O)[C@H]1CCc2c(sc3ncnc(Nc4ccc5[nH]ncc5c4)c23)C1"
  IC50 / nM: 3.2
- compound: "COCCN(C)C(=O)[C@H]1CCc2c(sc3ncnc(Nc4cc5cn[nH]c5cc4Cl)c23)C1"
  IC50 / nM: 2.5
- compound: "C[C@H](CN)Oc1cc2[nH]ncc2cc1Nc1ncnc2sc3c(c12)CC[C@H](C(=O)N1CCOC[C@@H]1C)C3"
  IC50 / nM: 0.4
